Assay: Approximate solubility in solvents by aliquot addition
Assay type: physicochemical
Conditions: ethanol, organic solvent or mixture, thermodynamic from solid, Table 11: Ethanol; material never went into solution
Protocol: Solubilities of the radezolid free base and radezolid HCl salt in various solvents were estimated and are shown in Tables 10 and 11, respectively, below. A weighed sample was treated with aliquots of test solvent at ambient temperature. Complete dissolution of the test material was determined by visual inspection. […] The actual solubility may be greater than the approximate solubility calculated because of the use of solvent aliquots that were too large or due to a slow rate of dissolution. […]
Where a name gives a salt, the structure may show the parent alone.
Outcome Measure: solubility

[[record]]
compound = "CC(=O)NC[C@H]1CN(c2ccc(-c3ccc(CNCc4cnn[nH]4)cc3)c(F)c2)C(=O)O1 [Hydrochloride]"
experimental_value = "< 2000 µg/mL"

